Target: 5-HT2A receptor (Homo sapiens (Human))
Sequence (P28223 whole entry): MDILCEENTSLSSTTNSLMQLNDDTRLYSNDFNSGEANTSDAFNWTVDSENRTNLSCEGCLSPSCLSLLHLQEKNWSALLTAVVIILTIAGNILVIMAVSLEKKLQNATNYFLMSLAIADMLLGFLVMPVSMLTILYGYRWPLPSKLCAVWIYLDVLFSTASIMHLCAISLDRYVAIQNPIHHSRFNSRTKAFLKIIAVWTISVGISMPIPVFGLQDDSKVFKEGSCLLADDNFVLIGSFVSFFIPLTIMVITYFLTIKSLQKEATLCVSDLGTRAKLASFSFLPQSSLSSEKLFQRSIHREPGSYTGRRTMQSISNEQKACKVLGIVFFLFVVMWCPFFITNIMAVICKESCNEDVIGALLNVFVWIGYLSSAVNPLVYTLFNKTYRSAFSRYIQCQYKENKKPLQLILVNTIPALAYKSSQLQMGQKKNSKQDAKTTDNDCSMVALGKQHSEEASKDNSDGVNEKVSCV
Test: Radioligand-receptor binding assay, 5-HT2A receptor ([3H]-Ketanserin)
Conditions: [3H]-Ketanserin 2 nM, human 5-HT2A receptor membrane; read-out: 5HT-2A binding activity IC50
Could you please mark 1 (yes) for values of IC50 below 0.6 nM and 0 (no) for values at or above it?

Past entries and their recorded results:
>>> classassignment("O=C(N[C@H]1CC[C@H](CCN2CCN(c3cccc4sccc34)CC2)CC1)c1ccco1")
"0 (no)"
>>> classassignment("CN(C)C(=O)NC1CCC(CCN2CCN(c3cccc4sccc34)CC2)CC1F (stereo not drawn)")
"0 (no)"
>>> classassignment("CON(C)C(=O)N[C@H]1CC[C@H](CCN2CCN(c3cccc4sccc34)CC2)CC1")
"0 (no)"
>>> classassignment("Fc1cnc(N[C@H]2CC[C@H](CCN3CCN(c4cccc5sccc45)CC3)CC2)nc1")
"1 (yes)"
>>> classassignment("CC(C)(O)CC(=O)N[C@H]1CC[C@H](CCN2CCN(c3cccc4sccc34)CC2)CC1")
"0 (no)"

In: Is the reported IC50 for O=C(NC1CCC(CCN2CCN(c3cccc4sccc34)CC2)CC1F)c1ccco1 (stereo not drawn) strictly below 0.6 nM?
Out: 0 (no)

In: Is the reported IC50 for "O=C(N[C@H]1CC[C@H](CCN2CCN(c3cccc4sccc34)CC2)CC1)C1(O)CC1" strictly below 0.6 nM?
Out: 1 (yes)

In: Is the reported IC50 for "COC1(C)CN(C(=O)N[C@H]2CC[C@H](CCN3CCN(c4cccc5sccc45)CC3)CC2)C1" strictly below 0.6 nM?
Out: 1 (yes)

In: Is the reported IC50 for "O=C(N[C@H]1CC[C@](F)(CCN2CCN(c3cccc4sccc34)CC2)CC1)c1ccco1" strictly below 0.6 nM?
Out: 1 (yes)

====

The following are reported IC50 results, target or system UniProt P35462.
Sequence (P35462 whole entry): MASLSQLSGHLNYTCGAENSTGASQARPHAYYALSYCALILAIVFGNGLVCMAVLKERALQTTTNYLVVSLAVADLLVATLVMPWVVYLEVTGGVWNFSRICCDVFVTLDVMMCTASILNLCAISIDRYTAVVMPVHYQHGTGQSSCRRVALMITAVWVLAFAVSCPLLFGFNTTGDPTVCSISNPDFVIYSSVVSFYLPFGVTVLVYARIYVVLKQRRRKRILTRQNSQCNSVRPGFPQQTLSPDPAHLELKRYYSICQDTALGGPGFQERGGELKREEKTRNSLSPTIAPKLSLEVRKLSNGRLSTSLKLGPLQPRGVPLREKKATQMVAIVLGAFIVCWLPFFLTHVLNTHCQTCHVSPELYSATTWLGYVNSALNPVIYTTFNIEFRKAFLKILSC
The figure you give is taken to be in nM; do not add the unit.

>>> assayresult("O=C(N[C@H]1CC[C@H](CCN2CCN(c3cccc4sccc34)CC2)CC1)N1CC(F)(F)C1 [Example 2]")
0.76
>>> assayresult("CC(C)(O)C(=O)N[C@H]1CC[C@H](CCN2CCN(c3cccc4sccc34)CC2)CC1 [Example 41]")
1.03

Lab note: next compound to report on.
Lab note: measured IC50 of O=C(NC1CCC(CCN2CCN(c3cccc4sccc34)CC2)CC1F)c1ccco1 (stereo not drawn) [Example 51] was 0.76
